Field: Emax. Provide a value for each of the molecules that follow.
# TEST TARGET: Glucose-dependent insulinotropic receptor (Homo sapiens) (UniProt Q8TDV5)
# Sequence (whole entry): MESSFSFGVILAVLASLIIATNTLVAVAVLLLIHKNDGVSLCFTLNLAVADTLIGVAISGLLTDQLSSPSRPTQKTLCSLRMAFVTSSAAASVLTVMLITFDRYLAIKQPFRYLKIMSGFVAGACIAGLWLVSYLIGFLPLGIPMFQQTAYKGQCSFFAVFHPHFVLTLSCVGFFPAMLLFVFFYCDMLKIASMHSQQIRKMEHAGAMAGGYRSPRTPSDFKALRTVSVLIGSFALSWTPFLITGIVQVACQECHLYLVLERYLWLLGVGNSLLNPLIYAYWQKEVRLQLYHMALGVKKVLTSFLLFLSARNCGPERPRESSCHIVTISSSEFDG
# MEASUREMENT PROTOCOL: Agonist activity at human GPR119 expressed in HEK293 cells assessed as stimulation of cAMP level measured after 60 mins by HTRF assay relative to OEA
# Type: functional, cell-based
State the answer as a number, implicitly in %.

**Q:** Input CCOC(=O)N1[C@@H]2CC[C@@H]1CC(Oc1ncnc(Nc3ccc(S(C)(=O)=O)cc3F)c1[N+](=O)[O-])C2 (relative stereo) , output reported Emax.
**A:** 116

**Q:** Input CC(C)(C)OC(=O)N1[C@@H]2CC[C@@H]1CC(Nc1ncnc(Nc3ccc(C#N)cc3F)c1[N+](=O)[O-])C2 (relative stereo) , output reported Emax.
**A:** 114

**Q:** Input CC(C)(C)OC(=O)N1[C@@H]2CC[C@@H]1CC(Oc1ncnc(Oc3ccccc3Cl)c1[N+](=O)[O-])C2 (relative stereo) , output reported Emax.
**A:** 89.8
